Assay: M. tuberculosis H37Rv growth inhibitors, H37Rv strain (AID 1626);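 further: bacteria incubated seven days before Alamar blue readout; 0% = bacteria only wells and 100% = bacteria with antibiotic wells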
Details: active compounds read high, concentration not given here
In all, about 220,000 compounds went through this assay and about 2,000 (0.91%) were called active. Another 2% or so got no clear call; they are omitted. Not all results are given here. Entries with a potency or affinity are not part of this list.
The compounds listed here are annotated with their inhibition.
METRIC: inhibition (%)

{"COMPOUND": "O=C(COc1ccc(OCc2ccccc2)cc1)NN=C1CCCC1", "UNITS": "%", "RECORDED_VALUE": 7.98}
{"COMPOUND": "Cc1nnc(Cl)c2nn(-c3ccccc3)c(C)c12", "UNITS": "%", "RECORDED_VALUE": -0.17}
{"COMPOUND": "COC(=O)Nc1ccc(S(=O)(=O)N2CCCCC2C(=O)NCc2ccco2)cc1 (stereo not given)", "UNITS": "%", "RECORDED_VALUE": -7.03}
{"COMPOUND": "Cc1nc(NC(=O)c2ccc(F)cc2)sc1C(=O)Nc1ccc2c(c1)CCC2", "UNITS": "%", "RECORDED_VALUE": 10.8}
{"COMPOUND": "Cc1cccc(N2CCN(C(=O)N3CCOCC3)CC2)c1C", "UNITS": "%", "RECORDED_VALUE": -3.5}
{"COMPOUND": "O=C(Cn1c(=O)n(-c2ccccc2)c(=O)c2oc3ccccc3c21)Nc1ccccc1", "UNITS": "%", "RECORDED_VALUE": -0.16}
{"COMPOUND": "COc1ccccc1CN1C[C@@H]2C[C@@H](c3cccc(C)c3)N3CCC[C@@]23C1=O", "UNITS": "%", "RECORDED_VALUE": 4.89}
{"COMPOUND": "CSCC[C@H](NC(=O)c1cc([N+](=O)[O-])ccc1Cl)c1nc2ccccc2[nH]1", "UNITS": "%", "RECORDED_VALUE": 3.89}
{"COMPOUND": "CSCCC(NC(=O)c1cccc([N+](=O)[O-])c1)c1nc2ccccc2[nH]1 (stereo not given)", "UNITS": "%", "RECORDED_VALUE": 24.1}
{"COMPOUND": "CC(=O)C1=C(O)C(=O)N(C)C1c1ccccc1F (stereo not given)", "UNITS": "%", "RECORDED_VALUE": 0.41}

###

Assay: M. tuberculosis H37Rv growth inhibitors, H37Rv strain (AID 1626)
Details: active compounds read high, concentration not given here
The campaign covered roughly 220,000 compounds. About 2,000 (0.91%) were called active. About 2% were inconclusive and are not listed. Only a sample is shown. Measured potencies and affinities stand elsewhere.

{"COMPOUND": "COc1ccc(-n2c(C)cc(SC)c(C(C)=O)c2=S)cc1", "UNITS": "%", "inhibition": 1.47}
{"COMPOUND": "CC(C)(CO)NCc1ccc(Br)cc1", "UNITS": "%", "inhibition": 1.99}
{"COMPOUND": "O=C1/C(=C\\c2ccc(Cl)c(Cl)c2)N2CCC1CC2", "UNITS": "%", "inhibition": 15.2}
{"COMPOUND": "CCOC(=O)c1cc([N+](=O)[O-])sc1NC(=O)c1ccc(S(=O)(=O)N2CC3(C)CC2CC(C)(C)C3)cc1 (stereo unspecified)", "UNITS": "%", "inhibition": -0.55}
{"COMPOUND": "CCOC(=O)/C=c1\\s/c(=C(\\C#N)C(N)=O)n(-c2ccccc2)c1=O", "UNITS": "%", "inhibition": 2.26}
{"COMPOUND": "CCCOc1ccc(Br)cc1CSC(=N)N", "UNITS": "%", "inhibition": -1.31}

###

Experiment: M. tuberculosis H37Rv growth inhibitors, H37Rv strain (AID 1626);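 further: bacteria incubated seven days before Alamar blue readout; 0% = bacteria only wells and 100% = bacteria with antibiotic wells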
Settings: active compounds read high, concentration not given here
Screen size: about 220,000 compounds; about 2,000 (0.91%) were called active. Not shown: some 2% with an inconclusive outcome. Not all results are given here. Results with a measured potency or affinity are listed apart.
METRIC: inhibition (%)

{"SMI": "O=C(O)c1ccc(N/N=C/c2ccc(OC(=O)c3ccccc3Cl)cc2)cc1", "METRIC": "inhibition", "RECORDED_VALUE": 4.34}
{"SMI": "CCN(CC)C(=O)CN(c1cc(Cl)ccc1OC)S(=O)(=O)c1ccc(C)c([N+](=O)[O-])c1", "METRIC": "inhibition", "RECORDED_VALUE": 4.94}
{"SMI": "CCNC(=O)Nc1nc2ccccc2s1", "METRIC": "inhibition", "RECORDED_VALUE": 4.21}
{"SMI": "CCc1c(C)[nH]n(-c2nc(-c3ccccc3)cs2)c1=O", "METRIC": "inhibition", "RECORDED_VALUE": 5.2}
{"SMI": "CCOC(=O)C[C@H]1c2ccccc2S(=O)(=O)N1c1cccc(OC)c1", "METRIC": "inhibition", "RECORDED_VALUE": -8.13}
{"SMI": "COCCCNC(=O)CSc1nc2sc(C(=O)OC)c(C)c2c(=O)n1N", "METRIC": "inhibition", "RECORDED_VALUE": 7.98}
{"SMI": "O=C(CC(=O)c1ccccc1O)c1ccc(F)cc1", "METRIC": "inhibition", "RECORDED_VALUE": -0.45}
{"SMI": "CCOC(=O)COc1ccc(S(=O)(=O)NCc2ccco2)cc1", "METRIC": "inhibition", "RECORDED_VALUE": 10.1}
{"SMI": "O=C1NC(=O)N(c2ccccc2)C(=O)/C1=C\\C=C\\c1ccccc1", "METRIC": "inhibition", "RECORDED_VALUE": -3.04}
{"SMI": "O=C(NNC(=O)c1ccc(F)cc1F)c1ccc2c(c1)OCO2", "METRIC": "inhibition", "RECORDED_VALUE": -6.81}
{"SMI": "Cc1ccc(C(=O)CC(=O)c2cccc(F)c2)c(O)c1", "METRIC": "inhibition", "RECORDED_VALUE": 21}

###

The molecules listed here are annotated with their inhibition.
Experiment: M. tuberculosis H37Rv growth inhibitors, H37Rv strain (AID 1626);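 further: bacteria incubated seven days before Alamar blue readout; 0% = bacteria only wells and 100% = bacteria with antibiotic wells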
Details: active compounds read high, concentration not given here
The campaign covered roughly 220,000 compounds. About 2,000 (0.91%) were called active. About 2% were inconclusive and are not listed. A selection follows. Measured potencies and affinities stand elsewhere.

{"MOLECULE": "O=C(NC1CCCCC1)c1nn2c(C(F)(F)F)cc(-c3ccco3)nc2c1Br", "inhibition (%)": 1.53}
{"MOLECULE": "Cn1ccnc1SCC(=O)Nc1ccc2ccccc2c1", "inhibition (%)": 11.1}
{"MOLECULE": "NC(=O)NC(=O)COC(=O)c1ccccc1OCc1ccc(F)cc1", "inhibition (%)": 4.1}
{"MOLECULE": "COc1ccc(NC(=O)CSc2ccccn2)cc1", "inhibition (%)": 7.31}
{"MOLECULE": "N=C1C(c2ccccc2)=C(O)CN1c1cccc(S(=O)(=O)Nc2cccc(C(F)(F)F)c2)c1", "inhibition (%)": 71.6}
{"MOLECULE": "COc1ccc(NC(=O)CSc2ccccn2)cc1OC", "inhibition (%)": -4.19}
{"MOLECULE": "O=C1c2ccccc2C(O)(c2ncc[nH]2)N1CCc1ccccc1 (stereo unspecified)", "inhibition (%)": -2.48}
{"MOLECULE": "COCCCn1c(SCc2cccc(OC)c2)nc2cc(OC)c(OC)cc2c1=N", "inhibition (%)": 6.91}
{"MOLECULE": "COc1cccc(NC(=O)CSc2ccccn2)c1", "inhibition (%)": -1.36}
{"MOLECULE": "O=C(CSc1ccccn1)Nc1ccc2c(c1)C(=O)c1ccccc1C2=O", "inhibition (%)": 2.78}
{"MOLECULE": "Cn1c(-c2csc(-c3cccc(C(F)(F)F)c3)n2)n[nH]c1=S", "inhibition (%)": 3.67}

###

The compounds listed here are annotated with their inhibition.
Assay: M. tuberculosis H37Rv growth inhibitors, H37Rv strain (AID 1626);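 further: bacteria incubated seven days before Alamar blue readout; 0% = bacteria only wells and 100% = bacteria with antibiotic wells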
Conditions: active compounds read high, concentration not given here
The whole screen tested about 220,000 compounds, of which about 2,000 (0.91%) were called active. Not shown: some 2% with an inconclusive outcome. These entries were drawn from the full list. Entries with a potency or affinity are not part of this list.

{"COMPOUND": "CCCC1(C(=O)OCC)NC(c2ccc(O)cc2)C2C(=O)N(c3ccc4c(c3)OCCO4)C(=O)C21 (configuration not stated)", "UNITS": "%", "inhibition": 11.1}
{"COMPOUND": "CCCOc1cccc(C2C(C(=O)c3ccco3)=C(O)C(=O)N2CCN(CC)CC)c1 (configuration not stated)", "UNITS": "%", "inhibition": -7.15}
{"COMPOUND": "O=C(O)CC(CNS(=O)(=O)c1cccc2nsnc12)c1ccccc1 (configuration not stated)", "UNITS": "%", "inhibition": 2.51}
{"COMPOUND": "CCOC(=O)c1ccc(NC(=S)N2CCN(c3ccc(N4CCOCC4)nn3)CC2)cc1", "UNITS": "%", "inhibition": 4.49}
{"COMPOUND": "CC(C)C(NC(=O)c1ccccc1F)C(=O)Nc1ccc2c(c1)OCO2 (configuration not stated)", "UNITS": "%", "inhibition": 1.73}
{"COMPOUND": "O=C(Nc1cccc2ncccc12)C12CC3CC(CC(C3)C1)C2", "UNITS": "%", "inhibition": -10}
{"COMPOUND": "O=C(Nc1ccc(-c2noc(COc3ccccc3Cl)n2)cc1)c1ccco1", "UNITS": "%", "inhibition": 0.69}
{"COMPOUND": "Cc1c(N=Cc2nc3ccccc3n2C)c(=O)n(-c2ccccc2)n1C", "UNITS": "%", "inhibition": -8.83}
{"COMPOUND": "COc1ccc(CN2C(=O)CS/C2=N/N=C/c2ccccc2)cc1", "UNITS": "%", "inhibition": -0.88}
{"COMPOUND": "CC(Sc1ccccc1)C(=O)NN=C1CCCC1 (configuration not stated)", "UNITS": "%", "inhibition": -0.55}
{"COMPOUND": "Cn1c(Cn2c(=O)sc3ccccc32)nnc1SCC(=O)NC1CCCC1", "UNITS": "%", "inhibition": -8.44}
{"COMPOUND": "COc1cc(NC(=O)c2ccccc2)c(OC)cc1NC(=O)CN1CCCCC1", "UNITS": "%", "inhibition": 25.5}
{"COMPOUND": "Cc1nn(CC(=O)NC(C)c2ccccc2)c(=O)c2ccccc12 (configuration not stated)", "UNITS": "%", "inhibition": -2.29}
{"COMPOUND": "O=C(COC(=O)CCSc1ccc(Cl)cc1)NCc1ccc(Cl)cc1", "UNITS": "%", "inhibition": 1.66}
{"COMPOUND": "CC(=O)N/C(=C\\c1ccc(F)cc1)C(=O)N(C)C", "UNITS": "%", "inhibition": -5.54}
{"COMPOUND": "COc1cc(NC(=O)c2ccc(Cl)cc2)c(OC)cc1NC(=O)CN1CCOCC1", "UNITS": "%", "inhibition": -0.92}
{"COMPOUND": "CCNc1ccc(C(=O)OCC)cc1NC(=O)c1cc(S(=O)(=O)N2CCOCC2)ccc1C", "UNITS": "%", "inhibition": 0.89}
{"COMPOUND": "CN1CCC(=NNC(=O)COc2ccc(Cl)cc2)CC1", "UNITS": "%", "inhibition": 2.45}
{"COMPOUND": "OC(CSc1ccc(F)cc1)CN1CCN(c2ccccc2)CC1 (configuration not stated)", "UNITS": "%", "inhibition": 2.78}
{"COMPOUND": "CN(C)/C=C1\\N=C(c2ccccc2)OC1=O", "UNITS": "%", "inhibition": 8.41}
{"COMPOUND": "CC(C)c1ccccc1NC(=O)COc1ccc2c(=O)c(Oc3ccc4ccccc4c3)coc2c1", "UNITS": "%", "inhibition": 5.82}
{"COMPOUND": "CCc1cccc(NC(=S)N(CCCN2CCOCC2)C(C)c2cc3cccc(OC)c3o2)c1 (configuration not stated)", "UNITS": "%", "inhibition": -11.9}
